The reported numbers originate from patent US20200079833A1.

Recorded measurements of cAMP Primary assay EC50, n2, one per entry
Target: glucagon receptor (GCGR), primary cAMP assay cell line (human, UniProt P47871 26-477)
Sequence (P47871 26-477): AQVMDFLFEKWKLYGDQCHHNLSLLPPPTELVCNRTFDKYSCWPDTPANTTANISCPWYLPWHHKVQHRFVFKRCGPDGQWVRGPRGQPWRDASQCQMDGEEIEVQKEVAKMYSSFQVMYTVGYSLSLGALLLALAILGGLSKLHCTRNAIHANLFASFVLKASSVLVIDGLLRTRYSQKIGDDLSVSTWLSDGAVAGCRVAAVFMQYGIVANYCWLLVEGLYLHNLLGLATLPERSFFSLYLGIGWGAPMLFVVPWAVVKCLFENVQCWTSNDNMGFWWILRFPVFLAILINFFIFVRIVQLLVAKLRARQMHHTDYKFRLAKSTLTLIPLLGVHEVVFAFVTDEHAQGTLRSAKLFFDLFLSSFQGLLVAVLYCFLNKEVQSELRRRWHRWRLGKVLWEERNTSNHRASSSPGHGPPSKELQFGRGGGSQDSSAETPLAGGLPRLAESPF
Assay: cell-based or functional assay
Starred links: 1 amine or outer side, 2 acyl side, 3 side chain; linkers in the order of their positions; H or OH if unused. Non-standard residues stand in square brackets, D forms with d. Groups on a side chain read outwards from the residue. Primed or numbered codes have the meaning given here. No end group written: not given here. *: point of attachment. γGlu = O=C(O)[C@H](CCC(=O)[*:2])N[*:1]; αMeF = C[C@](N)(Cc1ccccc1)C(=O)O; αMeK = C[C@](N)(CCCCN)C(=O)O; Lauroyl = CCCCCCCCCCCC(=O)*; PEG2′ = not defined here; Aib = CC(C)(N)C(=O)O
Record the value in nM, omitting the unit from your answer.

Entry H[Aib]EGS[αMeF]TSDK([PEG2′-PEG2′-γGlu-Lauroyl])SSYLEGK([PEG2′-PEG2′-γGlu-Lauroyl])AA[αMeK]EFIAFK([PEG2′-PEG2′-γGlu-Lauroyl])VEGG-NH2 [SEQ ID NO: 472] , cAMP Primary assay EC50, n2 reported as 19.9

Field cAMP Primary assay EC50, n2 (entry H[Aib]EGS[αMeF]TSDVSK([PEG2′-PEG2′-γGlu-Lauroyl])YLEGEK([PEG2′-PEG2′-γGlu-Lauroyl])A[αMeK]EFIAFK([PEG2′-PEG2′-γGlu-Lauroyl])VEGG-NH2 [SEQ ID NO: 477] ) reads 19.6
